Reported LD50 is given for each of the following compounds.
Run Description: Acute toxicity (lethal dose 50) in the mouse
Reported Conditions: in vivo, oral (P.O.), 5 males and 5 females per dose, read-out: LD 50 P.O.
Excerpt: The acute toxicity of the deriatives of the invention were studied by oral administration (P.O) to the mouse (10 animals, 5 males and 5 females per dose) and calculation of the lethal dose 50 (LD 50) in accordance with the method of Litchfield and Wilcoxon (J. Pharmacol., 96, 99-113 (1949)). Table 1 gives the LD 50 values of the derivatives of the invention. In certain cases, the LD 50 was also studied after intraperitoneal injection (I.P.) of the derivatives.
Property: LD50

Compound: Cc1c(-c2ccccc2)n[nH]c1OCCCN(C)C [Example 15]
Readout Value: 500 to 1000 mg/kg
--
Compound: c1ccc(-c2cc(OCCCN3CCCCC3)[nH]n2)cc1 [Example 13]
Readout Value: 125 to 250 mg/kg
--
Compound: c1ccc(-c2cc(OCCN3CCCCC3)[nH]n2)cc1 [Example 9]
Readout Value: 400 to 800 mg/kg
--
Compound: Cc1c(-c2ccc(Cl)cc2)n[nH]c1OCCCN(C)C [Example 17]
Readout Value: 500 to 1000 mg/kg
